System: MCF7
Test: Cytotoxicity against human MCF7 cells measured after 48 hrs by MTS assay
Format: functional, cell-based
Conditions: MCF7, 48 h
property.name: IC50 (µM)
Answer with a number only, understood to be in µM.

Param readout = IC50; param system = MCF7; param query = CC1=CC(=O)O[C@@]23CC(=O)O[C@@]12C[C@H]1C[C@H](O)[C@@]2(C)Oc4cc(O)c(=O)cc(C)c4C[C@H]2CC(C)(C)/C=C/C[C@]1(C)O3 ; response: value
68.4

###

System: H4
Assay: Cytotoxicity against human H4 cells measured after 48 hrs by MTS assay
Type: functional, cell-based
Conditions: H4, 48 h
property.name: pIC50
Just the number, please; pIC50 means minus log10 of the concentration in mol/L.

I am curious: what pIC50 value has been reported for CC1=CC(=O)O[C@@]23CC(=O)O[C@@]12C[C@H]1C[C@H](O)[C@@]2(C)Oc4cc(O)c(=O)cc(C)c4C[C@H]2CC(C)(C)/C=C/C[C@]1(C)O3 ?
4.35
